system: MCF7; test: NCI tumour cell line growth inhibition, 48 h
Activity calls are given as the source filed them. Cut-off read from the data, not from the text of the source: active = GI50 up to about 1.1 µM and inactive = higher.
We begin with a simple list: items and their reported GI50.

Solved entries:
COC/C=C\[C@@]1(O)CCCC[C@@H]1CC(OC)OC; 2.75 µM (inactive)
CCOC(=O)c1c(N2CCCC2)[nH]c(=O)c(C(c2ccc(N(C)C)cc2)c2c(O)c(C(=O)OCC)c(N3CCCC3)[nH]c2=O)c1O; > 100 µM (inactive)
CC(C)CCC[C@@H](C)[C@H]1CC[C@H]2C3=C[C@H](OS(=O)(=O)O)[C@@]4(O)C[C@@H](O)CC[C@]4(C)[C@@]3(O)CC[C@]12C; > 100 µM (inactive)
O=c1[nH]c(=O)n(C2CC(O)C(CO)O2)c2nc3ccc4cc5ccccc5cc4c3nc12 (centres undefined); > 100 µM (inactive)
O=C1NC(N2CCCC(CO)C2)=N/C1=C\c1cccs1 (centres undefined); > 100 µM (inactive)
CCOC(=O)c1ccc(C(=O)/C(C(=O)OC(C)(C)C)=C2\CCCN2C)n1C; 55.8 µM (inactive)

Exam item: Consider the molecule shown here: COc1cccc2c1C(=O)c1c(O)c3c(c(O)c1C2=O)C[C@@](O)(C(=O)CN1CCOCC1)C[C@@H]3OC1CC(N)C(O)C(C)O1 (some centres undefined) What is its recorded GI50?
Marked response: 0.938 µM (active)

Exam item: Now the molecule "NNc1nnc(-c2nnc(NN)o2)o1"
Marked response: > 10 µM (inactive)

Exam item: Now the molecule COc1cc2cc(C(=O)N3CC(CCl)c4ccc([N+](C)(C)Cc5ccccc5[N+](=O)[O-])cc43)[nH]c2c(OC)c1OC (centres undefined)
Marked response: 0.621 µM (active)
